Source of measurements: patent US20190134005A1

System: human CGT (Homo sapiens, UniProt Q16880)
Sequence (Q16880 21-541): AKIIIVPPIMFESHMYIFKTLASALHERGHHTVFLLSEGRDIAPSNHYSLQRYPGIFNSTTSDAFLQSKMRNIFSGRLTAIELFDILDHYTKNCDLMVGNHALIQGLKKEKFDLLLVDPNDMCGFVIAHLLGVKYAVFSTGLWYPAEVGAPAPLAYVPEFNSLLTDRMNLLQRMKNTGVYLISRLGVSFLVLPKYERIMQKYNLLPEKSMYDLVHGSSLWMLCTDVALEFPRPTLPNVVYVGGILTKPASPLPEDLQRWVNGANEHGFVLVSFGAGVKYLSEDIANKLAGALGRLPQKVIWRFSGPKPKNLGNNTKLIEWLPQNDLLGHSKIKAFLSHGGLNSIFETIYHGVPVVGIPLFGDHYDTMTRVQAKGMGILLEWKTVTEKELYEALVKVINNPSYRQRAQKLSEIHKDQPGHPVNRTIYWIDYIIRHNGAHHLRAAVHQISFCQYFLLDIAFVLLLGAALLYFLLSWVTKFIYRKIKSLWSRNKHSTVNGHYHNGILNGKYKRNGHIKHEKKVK
Assay Comment: Assay 1: CGT Enzymatic Assay (RapidFire/MS/MS, 0.01% Tween 80)
Assay type: biochemical
Applied Conditions: Table 1, Compounds of Formula (I) and Formula (II); CGT enzymatic assay; read-out: IC50
pIC50: −log10 of the molar value.
Reported pIC50 by item:

>>> print(df.to_string())
                                   molecule  measured_quantity  endpoint_result
0  Cc1csc(C2(O)[C@H](C)N(c3ccc(Br)cc3)C(=O)N2c2ccc(Br)cc2)c1 (stereo partly shown)              pIC50     5.00 to 6.00
1  CCC1N(c2ccc(Br)cc2)C(=O)N(c2ccc(Br)cc2)C1(O)c1cccc(C(F)(F)F)c1 (stereo not shown)              pIC50           > 6.00
2  CCCC1N(c2ccc(Cl)cc2)C(=O)N(c2ccc(Cl)cc2)C1(O)c1cccc(CC)c1 (stereo not shown)              pIC50           > 6.00

Below: the item to evaluate.
Problem: What pIC50 value was documented for this molecule, CCc1c(-c2cccc(OC(F)(F)F)c2)n(-c2ccc(Cl)cc2)c(=O)n1-c1ccc(Cl)cc1 ?
Result: > 6.00

----------
System: human CGT (Homo sapiens)
Assay Comment: Assay 1: CGT Enzymatic Assay (RapidFire/MS/MS, 0.01% Tween 80)
Format: biochemical
Applied Conditions: Table 1, Compounds of Formula (I) and Formula (II); CGT enzymatic assay; read-out: IC50
Reported IC50 by item:

In [3]: df
Out[3]:
                                   compound     endpoint_result
0  CCCC1N(c2ccc(Br)cc2)C(=O)N(c2ccc(Br)cc2)C1(O)c1ccccc1 (centres unmarked) [Compound 51]           < 1000 nM
1  O=C1N(c2ccc(Br)cc2)C(=O)C(O)(C2Cc3ccccc3C2)N1c1ccc(Br)cc1 (centres unmarked) [Example 215]  50000 to 100000 nM
2  COc1ccc(C2(O)CN(c3ccc(Br)cc3)C(=O)N2c2ccc(Br)cc2)cn1 (centres unmarked) [Example 54]          > 50000 nM

Below: the item to evaluate.
Problem: What IC50 value was documented for this compound, Cc1ccc(N2C(=O)N(c3ccc(C)cc3)C(O)(c3cccc(C#N)c3)[C@@H]2C)cc1 (single isomer, unassigned) [Compound 105-1] ?
Result: 1000 to 10000 nM

----------
Reported IC50 by item:
System: UniProt Q16880
Assay Comment: Assay 1: CGT Enzymatic Assay (RapidFire/MS/MS, 0.01% Tween 80)
Assay type: biochemical
Applied Conditions: Table 1, Compounds of Formula (I) and Formula (II); CGT enzymatic assay; read-out: IC50

>>> print(df.to_string())
                                   compound  endpoint_result
0  O=C1N(c2cccc(Br)c2)C(=O)C(O)(c2ccccc2)N1c1cccc(Br)c1 (centres unmarked) [Example 181]     50 to 100 µM
1  Cc1cc(C)cc(C2(O)C(C)N(c3ccc(Br)cc3)C(=O)N2c2ccc(Br)cc2)c1 (centres unmarked) [Example 42]           < 1 µM
2  O=C1N(c2ccc(Cl)cc2)C(C2CCC2)C(O)(c2cccc(OC(F)(F)F)c2)N1c1ccc(Cl)cc1 (centres unmarked) [Example 191]           < 1 µM
3  O=C1N(c2ccc(Cl)cc2)[C@H](c2ccccc2)[C@](O)(CO)N1c1ccc(Cl)cc1 [Example 218-1]      10 to 50 µM
4  O=C1N(c2ccc(Cl)cc2Cl)CC(O)(c2ccccc2)N1c1ccc(Cl)cc1Cl (centres unmarked) [Example 57]          > 50 µM
5  N#Cc1cccc(C2(O)[C@@H](C3CCC3)N(c3ccc(Cl)cc3)C(=O)N2c2ccc(Cl)cc2)c1 (some centres unmarked) [Example 194-2]           < 1 µM

Problem: What IC50 value was documented for this compound, O=C1N(c2ccc(Br)cc2)CC(O)(c2ccccc2)N1c1ccc(Br)cc1 (centres unmarked) [Example 1] ?
Result: 1 to 10 µM

Problem: What IC50 value was documented for this compound, CCCCCCCCC1(O)C(=O)N(c2ccc(Br)cc2)C(=O)N1c1ccc(Br)cc1 (centres unmarked) [Example 199] ?
Result: > 50 µM

----------
System: human CGT (Homo sapiens, UniProt Q16880)
Assay Comment: CGT Enzyme Assay (Biological Example 2, RapidFire/MS/MS method with 0.01% Tween 80 added)
Type: biochemical
Applied Conditions: enzymatic assay, CHO/CGT lysate
Measured Quantity: IC50

>>> df
                            compound_smiles  endpoint_result
0  CC[C@@]1(C)[C@@H](c2cccc(OC(F)(F)F)c2)N(c2ccc(Cl)cc2)C(=O)N1c1ccc(Cl)cc1       1 to 10 µM
1  CC1(C)[C@@H](c2cccc(OC(F)(F)F)c2)N(c2ccccc2)C(=O)N1c1ccccc1      10 to 30 µM
2  Cc1ccc(N2C(=O)N(c3ccc(C#N)cc3)C(C)(C)[C@@H]2c2cccc(C#N)c2)cc1           < 1 µM

Problem: What IC50 value was documented for this compound, N#Cc1ccc(N2C(=O)N(c3ccc(Cl)cc3)[C@H](c3cccc(OC(F)(F)F)c3)C23COC3)cc1 ?
Result: < 1 µM

Problem: What IC50 value was documented for this compound, CCC1(CC)[C@@H](c2cccc(OC(F)(F)F)c2)N(c2ccc(Cl)cc2)C(=O)N1c1ccc(Cl)cc1 ?
Result: < 1 µM

----------
System: human CGT (Homo sapiens)
Assay Comment: Assay 1: CGT Enzymatic Assay (RapidFire/MS/MS, 0.01% Tween 80)
Assay type: biochemical
Applied Conditions: Table 1, Compounds of Formula (I) and Formula (II); CGT enzymatic assay; read-out: IC50
Measured Quantity: IC50

In [3]: df
Out[3]:
                                   molecule                    system   endpoint_result
0  Cc1cc(C)cc(C2(O)[C@@H](C)N(c3ccc(Br)cc3)C(=O)N2c2ccc(Br)cc2)c1 (stereo partly shown) [Example 42-2]  human CGT (Homo sapiens)  1000 to 10000 nM

Problem: # get_value(readout= IC50, system= human CGT (Homo sapiens)) for Cc1cccc(-c2c(C)n(-c3ccc(Cl)cc3)c(=O)n2-c2ccc(Cl)cc2)c1 [Compound 260]
Result: 1000 to 10000 nM

Problem: # get_value(readout= IC50, system= human CGT (Homo sapiens)) for C[C@]1(C(F)(F)F)N(c2ccc(Cl)cc2)C(=O)N(c2ccc(Cl)cc2)C1(O)c1cccc(OC(F)(F)F)c1 (single isomer, unassigned) [Example 159-1]
Result: 1000 to 10000 nM

Problem: # get_value(readout= IC50, system= human CGT (Homo sapiens)) for CC1N(c2ccc(Cl)cc2)C(=O)N(c2ccc(Cl)cc2)C1(O)c1cccc(OC(F)(F)F)c1 (stereo not shown) [Compound 129]
Result: < 1000 nM

----------
System: UniProt Q16880
Assay Comment: Assay 1: CGT Enzymatic Assay (RapidFire/MS/MS, 0.01% Tween 80)
Format: biochemical
Applied Conditions: Table 1, Compounds of Formula (I) and Formula (II); CGT enzymatic assay; read-out: IC50
Reported IC50 by item:

>>> print(df.to_string())
                                   molecule          system    endpoint_result
0  Cc1c(-c2cccc(C(C)O)c2)n(-c2ccc(Cl)cc2)c(=O)n1-c1ccc(Cl)cc1 (stereo not shown)  UniProt Q16880   1000 to 10000 nM
1  Cc1cc(C)cc(C2(O)[C@H](C)N(c3ccc(Br)cc3)C(=O)N2c2ccc(Br)cc2)c1 (stereo partly shown)  UniProt Q16880          < 1000 nM
2  O=C1N(c2ccc(Br)cc2)C(=O)C(O)(c2cc3ccccc3s2)N1c1ccc(Br)cc1 (stereo not shown)  UniProt Q16880  10000 to 50000 nM

Problem: What IC50 value was documented for this molecule, CC1(O)CN(c2ccc(Br)cc2)C(=O)N1c1ccc(Br)cc1 (stereo not shown) ?
Result: > 50000 nM

Problem: What IC50 value was documented for this molecule, CCC[C@H]1N(c2ccc(Cl)cc2)C(=O)N(c2ccc(Cl)cc2)C1(O)c1cccc(Cl)c1 (stereo partly shown) ?
Result: < 1000 nM

Problem: What IC50 value was documented for this molecule, Cc1cccc(C2(O)CN(c3ccc(Cl)cc3)C(=O)N2c2ccc(Cl)cc2)c1 (stereo not shown) ?
Result: 1000 to 10000 nM

Problem: What IC50 value was documented for this molecule, O=C1N(c2ccc(Br)cc2)CC(O)(c2cccs2)N1c1ccc(Br)cc1 (stereo not shown) ?
Result: 1000 to 10000 nM

Problem: What IC50 value was documented for this molecule, C[C@H]1N(c2ccc(Br)cc2)C(=O)N(c2ccc(Br)cc2)C1(O)c1cccc(C(F)(F)F)c1 (stereo partly shown) ?
Result: < 1000 nM

Problem: What IC50 value was documented for this molecule, Cc1cccc(C2(O)[C@H](C)N(c3ccc(Cl)cc3)C(=O)N2c2ccc(Cl)cc2)c1 (stereo partly shown) ?
Result: < 1000 nM

Problem: What IC50 value was documented for this molecule, COc1cccc(C2(O)[C@@H](C)N(c3ccc(Br)cc3)C(=O)N2c2ccc(Br)cc2)c1 (stereo partly shown) ?
Result: < 1000 nM

Problem: What IC50 value was documented for this molecule, O=C1N(c2ccccc2)CC(O)(c2ccccc2)N1c1ccc(Br)cc1 (stereo not shown) ?
Result: > 50000 nM

Problem: What IC50 value was documented for this molecule, CC[C@H]1N(c2ccc(Cl)cc2)C(=O)N(c2ccc(Cl)cc2)C1(O)c1cccc(OC(F)F)c1 (stereo partly shown) ?
Result: < 1000 nM

Problem: What IC50 value was documented for this molecule, CC1(C)N(c2ccc(Cl)cc2)C(=O)N(c2ccc(Cl)cc2)C1(O)c1cccc(OC(F)(F)F)c1 (stereo not shown) ?
Result: < 1000 nM

Problem: What IC50 value was documented for this molecule, N#Cc1cc(Cl)cc(-c2cn(-c3ccc(Cl)cc3)c(=O)n2-c2ccc(Cl)cc2)c1 ?
Result: > 50000 nM

Problem: What IC50 value was documented for this molecule, O=C1N(c2ccc(Cl)cc2)[C@@]2(CCOC2)[C@@](O)(c2cccc(OC(F)(F)F)c2)N1c1ccc(Cl)cc1 ?
Result: < 1000 nM

Problem: What IC50 value was documented for this molecule, CCC[C@@H]1N(c2ccc(Br)cc2)C(=O)N(c2ccc(Br)cc2)C1(O)c1cccc(C)c1 (stereo partly shown) ?
Result: < 1000 nM
